These data points were gathered from ChEMBL document CHEMBL5725551.

Protein target, amino acids: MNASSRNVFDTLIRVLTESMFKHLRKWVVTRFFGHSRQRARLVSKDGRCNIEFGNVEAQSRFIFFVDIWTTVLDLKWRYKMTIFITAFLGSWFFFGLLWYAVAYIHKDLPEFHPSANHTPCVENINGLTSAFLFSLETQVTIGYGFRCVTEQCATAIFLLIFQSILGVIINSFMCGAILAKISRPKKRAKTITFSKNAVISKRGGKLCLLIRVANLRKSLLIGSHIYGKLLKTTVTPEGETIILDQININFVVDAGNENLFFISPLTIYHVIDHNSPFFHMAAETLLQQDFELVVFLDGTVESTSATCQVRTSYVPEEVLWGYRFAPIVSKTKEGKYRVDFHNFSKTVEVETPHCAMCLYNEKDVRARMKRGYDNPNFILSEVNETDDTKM
observation-type: IC50 (nM)

Answered examples (4):
Q: Can you share its IC50? I mean this compound: C[C@@H]1C[C@]2(CC[C@@H](N(C)Cc3ccc(-n4cnnn4)nn3)CC2)C(=O)N1C1=CC(=O)OC1
Result: 270

Q: // query: C[C@H]1C[C@]2(CC[C@@H](NCc3ccc(-n4cnnn4)nn3)CC2)C(=O)N1C1=CC(=O)OC1
Result: 30

Q: // query: CC1=C(N2C(=O)[C@]3(CC[C@H](N(C)Cc4ccc(-n5cnnn5)nn4)CC3)C[C@@H]2C)COC1=O
Result: 200

Q: // query: CC1=C(N2CCC3(CCC(NCc4ccc5c(c4C)Cn4nnnc4-5)CC3)C2=O)COC1=O (stereo not drawn)
Result: 19

I: CC1=C(N2C(=O)[C@]3(CC[C@H](N(C)Cc4cnc(-n5cnnn5)cn4)CC3)C[C@H]2C)COC1=O
II: C[C@H]1C[C@]2(CC[C@@H](NCc3cnc(-n4cnnn4)s3)CC2)C(=O)N1C1=CC(=O)OC1
III: CC1=C(N2C(=O)[C@]3(CC[C@H](NCc4ccc(-n5cnnn5)nn4)CC3)C[C@@H]2C)COC1=O
IV: CC1=C(N2CC[C@]3(CC[C@@H](NCc4cnc(-n5cnnn5)s4)CC3)C2=O)COC1=O
Q: Place the items in sequence of falling IC50. Respond with the label ranking, as requested.
Result: I, IV, III, II
